Attribute: WRL IC50
test system: Liver (WRL) cancer cell line; assay: MTT cytotoxicity assay, WRL; format: cell-based, human; conditions: MTT assay, WRL liver cancer cells
Please format your answer as a value with the unit trailing.

Answered examples (2):
compound	WRL IC50
COC(=O)C1=COC(O[C@@H]2O[C@H](COC(c3ccccc3)(c3ccccc3)c3ccccc3)[C@@H](OC(C)=O)[C@H](OC(C)=O)[C@H]2OC(C)=O)C2C1CC(OC(C)=O)C2C (stereo partly drawn)	2.44 µg/mL
CCC(=O)OC[C@H]1O[C@@H](OC2OC=C(C(=O)OC)C3CC(OC(C)=O)C(C)C23)[C@H](OC(C)=O)[C@@H](OC(C)=O)[C@@H]1OC(C)=O (stereo partly drawn)	2.65 µg/mL

Below: the item to evaluate.
What measured WRL IC50 goes with CCCCCCCCCCCC(=O)OC[C@H]1O[C@@H](OC2OC=C(C(=O)OC)C3CC(OC(C)=O)C(C)C23)[C@H](OC(C)=O)[C@@H](OC(C)=O)[C@@H]1OC(C)=O (stereo partly drawn) ? 0.85 µg/mL
